assay-method-text: Fluorescence titration of labeled ParM with ADP
Format: binding
protocol-conditions: Table 2; fluorescence titration, 20° C.
Procedure: MDCC fluorescence was excited at 431 nm and detected at 474 nm, for the rhodamine-labeled proteins, excitation and emission wavelengths of 553 nm and 578 nm were used. […] The fraction of ParM bound to ADP was calculated from the fluorescence intensities. The MDCC fluorescence was excited at 431 nm and emission was recorded at 474 nm. The equilibrium dissociation constants were determined by fitting a quadratic binding curve to the data. […]
Entries and their measured Kd follow.

# molecule, Kd (nM)
rows = [
    ("S9A: MDCC-ParM (His6/S9A/I27C/C287A) (conjugate, UniProt P11904 1-320, looked up, variant S9A I27C C287A, MDCC label; His6 tag) Plasmid segregation protein …: MLVFIDDGATNIKLQWQESDGTIKQHCSPNSFKREWAVSFGDKKVFNYTLNGEQYSFDPISPDAVVTTNIAWQYSDVNVVAVHHALLTSGLPVSEVDIVCTLPLTEYYDRNNQPNTENIERKKANFRKKITLNGGDTFTIKDVKVMPESIPAGYEVLQELDELDSLLIIDLGGTTLDISQVMGKLSGISKIYGDSSLGVSLVTSAVKDALSLARTKGSSYLADDIIIHRKDNNYLKQRINDENKISIVTEAMNEALRKLEQRVLNTLNEFSGYTHVMVIGGGAELIADAVKKHTQIRDERFFKTNNSQYDLVNGMYLIGN", 2500),
    ("T174A: MDCC-ParM (His6/I27C/T174A/C287A) (conjugate, UniProt P11904 1-320, looked up, variant I27C T174A C287A, MDCC label; His6 tag) Plasmid segregation protein …: MLVFIDDGSTNIKLQWQESDGTIKQHCSPNSFKREWAVSFGDKKVFNYTLNGEQYSFDPISPDAVVTTNIAWQYSDVNVVAVHHALLTSGLPVSEVDIVCTLPLTEYYDRNNQPNTENIERKKANFRKKITLNGGDTFTIKDVKVMPESIPAGYEVLQELDELDSLLIIDLGGATLDISQVMGKLSGISKIYGDSSLGVSLVTSAVKDALSLARTKGSSYLADDIIIHRKDNNYLKQRINDENKISIVTEAMNEALRKLEQRVLNTLNEFSGYTHVMVIGGGAELIADAVKKHTQIRDERFFKTNNSQYDLVNGMYLIGN", 390),
    ("T175N: MDCC-ParM (His6/I27C/T175N/C287A) (conjugate, UniProt P11904 1-320, looked up, variant I27C T175N C287A, MDCC label; His6 tag) Plasmid segregation protein …: MLVFIDDGSTNIKLQWQESDGTIKQHCSPNSFKREWAVSFGDKKVFNYTLNGEQYSFDPISPDAVVTTNIAWQYSDVNVVAVHHALLTSGLPVSEVDIVCTLPLTEYYDRNNQPNTENIERKKANFRKKITLNGGDTFTIKDVKVMPESIPAGYEVLQELDELDSLLIIDLGGTNLDISQVMGKLSGISKIYGDSSLGVSLVTSAVKDALSLARTKGSSYLADDIIIHRKDNNYLKQRINDENKISIVTEAMNEALRKLEQRVLNTLNEFSGYTHVMVIGGGAELIADAVKKHTQIRDERFFKTNNSQYDLVNGMYLIGN", 600),
    ("T175L: MDCC-ParM (His6/I27C/T175L/C287A) (conjugate, UniProt P11904 1-320, looked up, variant I27C T175L C287A, MDCC label; His6 tag) Plasmid segregation protein …: MLVFIDDGSTNIKLQWQESDGTIKQHCSPNSFKREWAVSFGDKKVFNYTLNGEQYSFDPISPDAVVTTNIAWQYSDVNVVAVHHALLTSGLPVSEVDIVCTLPLTEYYDRNNQPNTENIERKKANFRKKITLNGGDTFTIKDVKVMPESIPAGYEVLQELDELDSLLIIDLGGTLLDISQVMGKLSGISKIYGDSSLGVSLVTSAVKDALSLARTKGSSYLADDIIIHRKDNNYLKQRINDENKISIVTEAMNEALRKLEQRVLNTLNEFSGYTHVMVIGGGAELIADAVKKHTQIRDERFFKTNNSQYDLVNGMYLIGN", 1570),
]
